Assay: Neurotoxicity in rotenone induced at rat PC-12 cells assessed as cell viability pretreated with compound for 4 hrs followed by rotenone addition measured after 24 hrs by MTT assay
Format: toxicity, cell-based
Reported endpoint: IC50 (µM)

CC1(C)Oc2c(c(O)cc3occ(-c4ccc(F)cc4F)c(=O)c23)CC1O (stereo not drawn): 4.7
COc1cccc(-c2coc3cc(O)c4c(c3c2=O)OC(C)(C)C(O)C4)c1 (stereo not drawn): 5.5
COc1ccc(-c2coc3cc(O)c4c(c3c2=O)OC(C)(C)C=C4)cc1: 4.8

----------
System: PC-12
Assay: Neuroprotective activity against 6-OHDA-induced cytotoxicity in rat PC-12 cells at 30 uM for 4 hrs followed by exposure to 6-OHDA measured after 24 hrs by MTT assay
Type: functional, cell-based
Details: time 28.0 hrs
The source made the active and inactive calls. The rule behind the calls is not given here.
Outcomes: True (active), False (inactive)

CC1(C)Oc2c(c(O)cc3occ(-c4cccs4)c(=O)c23)CC1O (stereo not given): False
COc1ccc(-c2coc3cc(O)c4c(c3c2=O)OC(C)(C)C=C4)cc1: True
CC1(C)Oc2c(c(O)cc3occ(-c4ccco4)c(=O)c23)CC1O (stereo not given): False
CC1(C)Oc2c(c(O)cc3occ(-c4ccccc4)c(=O)c23)CC1O (stereo not given): True
Cc1cc(C)cc(-c2coc3cc(O)c4c(c3c2=O)OC(C)(C)C(O)C4)c1 (stereo not given): True
